Quick reference for EC50 among some molecules
target system: hGPR65 (Homo sapiens, UniProt Q8IYL9)
Construct: expressed in transfected cells; host or cells: HeLa (ATCC CCL-2), lentiviral transduction, pLX317
Sequence (Q8IYL9 whole entry): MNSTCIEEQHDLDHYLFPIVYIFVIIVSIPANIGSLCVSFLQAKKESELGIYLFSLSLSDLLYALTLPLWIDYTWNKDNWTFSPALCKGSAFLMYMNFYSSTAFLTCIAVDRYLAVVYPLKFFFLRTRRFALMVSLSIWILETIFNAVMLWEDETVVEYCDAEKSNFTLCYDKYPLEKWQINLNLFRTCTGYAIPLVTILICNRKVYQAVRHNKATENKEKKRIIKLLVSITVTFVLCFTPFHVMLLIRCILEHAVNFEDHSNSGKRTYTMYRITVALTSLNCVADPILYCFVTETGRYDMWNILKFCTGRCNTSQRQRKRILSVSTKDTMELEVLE
measurement protocol: cAMP detection in HeLa expression cell line, hGPR65
Format: cell-based
condition label: 2nd hGPR column pair; NA = no activity; read-out: hGPR EC50
A complete answer gives the number and then names the unit.

Please review the following examples before continuing.
State EC50 on hGPR65 (Homo sapiens, UniProt Q8IYL9). Entry: CCOCc1ccc(-c2cc(O)n3ncc(C(=O)Nc4ccccc4)c3n2)cc1
5.84 µM

State EC50 on hGPR65 (Homo sapiens, UniProt Q8IYL9). Entry: Cc1ccc(NC(=O)c2cnn3c(O)cc(-c4ccc(N5CCC(=O)CC5)cc4)nc23)cc1
5.53 µM

***
State EC50 on hGPR65 (Homo sapiens, UniProt Q8IYL9). Entry: Cc1ccc(NC(=O)c2cnn3c(O)cc(-c4ccc(N5CCOCC5)nc4)nc23)cc1
28.4 µM

State EC50 on hGPR65 (Homo sapiens, UniProt Q8IYL9). Entry: CN1N=C(SCc2ccc(Cl)cc2Cl)Sc2c1cnn(C)c2=O [BTB09089, reference compound]
1.37 µM

---

Quick reference for EC50 among some molecules
target system: hGPR65 (Homo sapiens)
Construct: expressed in transfected cells; host or cells: HeLa (ATCC CCL-2), lentiviral transduction, pLX317
measurement protocol: cAMP detection in HeLa expression cell line, hGPR65
Type: cell-based
condition label: hGPR EC50 (uM); NA = no activity
Number in µM, nothing else.

Please review the following examples before continuing.
For the molecule Cc1ccc(NC(=O)c2cnn3c(O)cc(-c4ccc(N5CCN(C)CC5)cc4)nc23)cc1 , give its measured EC50 value.
2.74

For the molecule Cc1ccc(NC(=O)c2cnn3c(O)cc(-c4ccc(COC(C)C)cc4)nc23)cc1Cl , give its measured EC50 value.
0.428

For the molecule COCc1ccc(-c2cc(O)n3ncc(C(=O)Nc4ccc(C)cc4)c3n2)cc1 , give its measured EC50 value.
0.866

For the molecule Cc1ccc(NC(=O)c2cnn3c(O)cc(-c4ccc(COC(C)C)cc4)nc23)nc1 , give its measured EC50 value.
0.377

For the molecule Cc1ccc(NC(=O)c2cnn3c(O)cc(-c4ccc(COC(C)C)cc4)nc23)cc1F , give its measured EC50 value.
0.229

For the molecule COCc1ccc(-c2cc(O)n3ncc(C(=O)Nc4ccc(OC)cc4)c3n2)cc1 , give its measured EC50 value.
1.26

***
For the molecule COCc1ccc(-c2cc(O)n3ncc(C(=O)Nc4ccccc4)c3n2)cc1 , give its measured EC50 value.
8.06

For the molecule Cc1ccc(NC(=O)c2cnn3c(O)cc(-c4ccc(COC(C)C)cc4)nc23)c(F)c1 , give its measured EC50 value.
0.856

---

target system: mGPR65 (Mus musculus)
Construct: expressed in transfected cells; host or cells: HeLa (ATCC CCL-2), lentiviral transduction, pLX317
measurement protocol: cAMP detection in HeLa expression cell line, mGPR65
Format: cell-based
condition label: HeLa; relative to 100uM forskolin (100%) and DMSO (0%); NA = no activity; read-out: mGPR Max Activity %
property: Emax (%)
Number in %, nothing else.

For the molecule Cc1ccc(NC(=O)c2cnn3c(O)cc(-c4ccc(C(=O)N(C)C)cc4)nc23)cc1 , give its measured Emax value.
32.1

For the molecule Cc1ccc(NC(=O)c2cnn3c(O)cc(-c4ccc(COC(C)C)cc4)nc23)cc1 , give its measured Emax value.
61.1

For the molecule COc1cccc(-c2cc(O)n3ncc(C(=O)Nc4ccc(C)cc4)c3n2)c1 , give its measured Emax value.
63.3

For the molecule COCc1ccc(-c2cc(O)n3ncc(C(=O)Nc4cccc(C)c4)c3n2)cc1 , give its measured Emax value.
63.6

For the molecule Cc1ccc(NC(=O)c2cnn3c(O)cc(-c4ccc(COC(C)C)cc4)nc23)cc1F , give its measured Emax value.
53.6

***
For the molecule Cc1ccc(NC(=O)c2cnn3c(O)cc(-c4ccc(C(N)=O)cc4)nc23)cc1 , give its measured Emax value.
4.93

For the molecule Cc1ncc(NC(=O)c2cnn3c(O)cc(-c4ccc(COC(C)C)cc4)nc23)cn1 , give its measured Emax value.
51.1

For the molecule Cc1ccc(NC(=O)c2cnn3c(O)cc(-c4ccc(COC(C)C)cc4)nc23)cn1 , give its measured Emax value.
60.5

For the molecule COCc1ccc(-c2cc(O)n3ncc(C(=O)Nc4ccc(OC)cc4)c3n2)cc1 , give its measured Emax value.
56.3

For the molecule COCc1ccc(-c2cc(O)n3ncc(C(=O)Nc4ccc(C(C)C)cc4)c3n2)cc1 , give its measured Emax value.
39.3

For the molecule Cc1ccc(NC(=O)c2cnn3c(O)cc(-c4ccc(N5CCN(C)CC5)nc4)nc23)cc1 , give its measured Emax value.
38.5

For the molecule COc1ncccc1-c1cc(O)n2ncc(C(=O)Nc3ccc(Cl)cc3)c2n1 , give its measured Emax value.
20

For the molecule COc1cc(-c2cc(O)n3ncc(C(=O)Nc4ccc(C)cc4)c3n2)ccc1Cl , give its measured Emax value.
23.4

For the molecule Cc1ccc(NC(=O)c2cnn3c(O)cc(Cc4c[nH]c5ccccc45)nc23)cc1 , give its measured Emax value.
7.25

For the molecule Cc1ccc(NC(=O)c2cnn3c(O)cc(-c4ccc(-c5ccccc5O)cc4)nc23)cc1 , give its measured Emax value.
54

For the molecule Cc1ccc(NC(=O)c2cnn3c(O)cc(-c4ccc(COC(C)C)cc4)nc23)c(Cl)c1 , give its measured Emax value.
66.3

For the molecule Cc1cnc(NC(=O)c2cnn3c(O)cc(-c4ccc(COC(C)C)cc4)nc23)nc1 , give its measured Emax value.
59.9

For the molecule Cc1ccc(NC(=O)c2cnn3c(O)cc(-c4cccc(C)c4)nc23)cc1 , give its measured Emax value.
2.06

For the molecule Cc1ccc(NC(=O)c2cnn3c(O)cc(-c4ccc(COC(C)C)cc4)nc23)c(F)c1 , give its measured Emax value.
63.5

For the molecule Cc1ccc(NC(=O)c2cnn3c(O)cc(-c4ccc(N5CCN(C)CC5)cc4)nc23)cc1 , give its measured Emax value.
57.8

---

Quick reference for Emax among some compounds
target system: mGPR65 (Mus musculus, UniProt Q61038)
Construct: expressed in transfected cells; host or cells: HeLa (ATCC CCL-2), lentiviral transduction, pLX317
Sequence (Q61038 whole entry): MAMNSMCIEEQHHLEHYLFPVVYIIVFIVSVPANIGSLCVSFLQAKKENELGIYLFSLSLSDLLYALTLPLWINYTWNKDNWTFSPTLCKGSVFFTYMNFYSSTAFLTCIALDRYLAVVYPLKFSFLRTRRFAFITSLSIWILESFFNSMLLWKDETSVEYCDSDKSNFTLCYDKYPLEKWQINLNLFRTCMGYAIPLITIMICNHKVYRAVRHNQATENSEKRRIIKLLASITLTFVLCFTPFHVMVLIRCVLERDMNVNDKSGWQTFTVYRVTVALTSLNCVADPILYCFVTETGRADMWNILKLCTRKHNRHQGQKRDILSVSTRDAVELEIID
measurement protocol: cAMP detection in HeLa expression cell line, mGPR65
Type: cell-based
condition label: HeLa; relative to 100uM forskolin (100%) and DMSO (0%); NA = no activity; read-out: mGPR Max Activity %
Number in %, nothing else.

Please review the following examples before continuing.
For the compound Cc1ccc(NC(=O)c2cnn3c(O)cc(CCc4c(C)n[nH]c4C)nc23)cc1 [BRD5908] , give its measured Emax value.
22.1

For the compound CCCc1cc(-c2cc(O)n3ncc(C(=O)Nc4ccccc4)c3n2)no1 [BRD0124] , give its measured Emax value.
63

For the compound CCCc1cc(-c2cc(O)n3ncc(C(=O)Nc4ccc(C)cc4)c3n2)no1 [BRD8472] , give its measured Emax value.
59.4

For the compound COCc1ccc(-c2cc(O)n3ncc(C(=O)Nc4ccccc4C)c3n2)cc1 [BRD2974] , give its measured Emax value.
8.27

***
For the compound Cc1ccc(NC(=O)c2cnn3c(O)cc(-c4ccc(N5CCN(C)CC5)c(Cl)c4)nc23)cc1 [BRD5068] , give its measured Emax value.
71

For the compound COCc1ccc(-c2cc(O)n3ncc(C(=O)NCc4ccc(C)cc4)c3n2)cc1 [BRD4305] , give its measured Emax value.
67.8

For the compound Cc1ccc(NC(=O)c2cnn3c(O)cc(-c4ccc(N5CCOCC5)nc4)nc23)cc1 [BRD5064] , give its measured Emax value.
37.4

For the compound COCc1ccc(-c2cc(O)n3ncc(C(=O)Nc4ccc(C(=O)N(C)C)cc4)c3n2)cc1 [BRD1926] , give its measured Emax value.
28.4

---

target system: mGPR65 (Mus musculus)
Construct: expressed in transfected cells; host or cells: HeLa (ATCC CCL-2), lentiviral transduction, pLX317
measurement protocol: cAMP detection in HeLa expression cell line, mGPR65
Format: cell-based
condition label: SAR cAMP assay, second EC50/Max pair of mGPR columns; read-out: mGPR EC50
Quick reference for pEC50 among some compounds
The read-out pEC50 is expressed as -log10 of concentration in moles per litre.

For the compound Cc1ccc(NC(=O)c2cnn3c(O)cc(-c4cccc(-c5ccccc5)c4)nc23)cc1 , give its measured pEC50 value.
6.25

***
For the compound Cc1ccc(NC(=O)c2cnn3c(O)cc(-c4ccc(C5CCCCC5)cc4)nc23)cc1 , give its measured pEC50 value.
6.24
